- test_system: Axl (Homo sapiens, UniProt P30530)
- Construct: endogenous in cells; host or cells: HeLa cells
- Sequence (P30530 26-894): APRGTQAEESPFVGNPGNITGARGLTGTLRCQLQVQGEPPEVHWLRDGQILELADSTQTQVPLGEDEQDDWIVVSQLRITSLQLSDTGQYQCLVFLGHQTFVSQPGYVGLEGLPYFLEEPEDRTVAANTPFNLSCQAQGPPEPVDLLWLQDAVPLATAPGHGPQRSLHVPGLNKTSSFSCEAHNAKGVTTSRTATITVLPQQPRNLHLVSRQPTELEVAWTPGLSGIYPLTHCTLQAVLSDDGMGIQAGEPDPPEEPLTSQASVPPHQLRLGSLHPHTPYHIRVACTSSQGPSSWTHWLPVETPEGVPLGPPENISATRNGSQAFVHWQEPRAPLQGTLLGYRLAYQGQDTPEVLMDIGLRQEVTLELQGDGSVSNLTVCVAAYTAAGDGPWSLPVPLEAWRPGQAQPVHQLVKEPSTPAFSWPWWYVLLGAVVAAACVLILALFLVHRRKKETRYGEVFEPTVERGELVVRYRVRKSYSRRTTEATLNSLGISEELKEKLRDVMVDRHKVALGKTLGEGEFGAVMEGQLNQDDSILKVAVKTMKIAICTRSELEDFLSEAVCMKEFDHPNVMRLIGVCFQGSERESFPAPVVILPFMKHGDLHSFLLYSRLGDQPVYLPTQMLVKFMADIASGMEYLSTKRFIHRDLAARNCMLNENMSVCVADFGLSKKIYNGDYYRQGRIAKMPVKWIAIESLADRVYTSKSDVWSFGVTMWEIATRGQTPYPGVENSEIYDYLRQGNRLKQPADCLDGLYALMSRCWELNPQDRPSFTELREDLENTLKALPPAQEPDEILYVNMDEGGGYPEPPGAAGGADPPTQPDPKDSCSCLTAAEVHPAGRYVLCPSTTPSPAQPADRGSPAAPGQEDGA
- method_notes: Phospho-Akt in-cell Western assay (inhibition of Axl activity)
- Assay type: cell-based
- condition: inhibition of Axl activity, Table 1
Exercise: for every item that follows, state its recorded IC50.

Some solved entries appear below for comparison.
Nc1nc(Nc2ccc3c(c2)OCCO3)nn1C(=O)c1cccc(Cl)c1
1 to 10 µM
Nc1nc(Nc2ccc3c(c2)OCCO3)nn1C(=O)c1ccc(F)cc1
> 20 µM

Would you mind giving IC50 for every compound in the list below?
1. CC(C)Oc1ccc(C(=O)n2nc(Nc3cccc(OCC(F)(F)F)c3)nc2N)cc1
2. CCOc1ccc(C(=O)n2nc(Nc3ccc4c(c3)OCCO4)nc2N)cc1
3. COC(=O)c1cccc(C(=O)n2nc(Nc3ccc(OCCN4CCCCC4)cc3)nc2N)c1
4. Cc1ccccc1C(=O)n1nc(Nc2cccc(OCC#N)c2)nc1N
5. Nc1nc(Nc2ccc3c(c2)OCCO3)nn1C(=O)c1ccc(OCc2ccccc2)cc1

1: > 20 µM; 2: 1 to 10 µM; 3: 1 to 10 µM; 4: > 20 µM; 5: 1 to 10 µM

# per-item lookup of IC50; items listed below
1. Nc1nc(Nc2ccc3c(c2)OCCO3)nn1C(=O)c1cccc(F)c1
2. COc1ccc(Nc2nc(N)n(C(=O)c3ccc(C)cc3)n2)cc1

1. > 20 µM
2. 1 to 10 µM

###

- test_system: Axl (Homo sapiens, UniProt P30530)
- Construct: endogenous in cells; host or cells: HeLa cells
- method_notes: Phospho-Akt in-cell Western assay (inhibition of Axl activity)
- Format: cell-based
- condition: inhibition of Axl activity, phospho-Akt in-cell Western assay; Table 1
measured_parameter: IC50

Recorded results for 7 compounds are shown here.
COc1cc(Nc2nc(N)n(C(=O)c3ccc(C(C)(C)C)cc3)n2)ccc1OCCN1CCCC1
< 1 µM
CC(C)Oc1ccc(C(=O)n2nc(Nc3ccc(OCCN(C)C)cc3)nc2N)cc1
< 1 µM
Nc1nc(Nc2ccc(OCCN3CCCC3)cc2)nn1C(=O)c1ccc(-n2ccnc2)cc1
< 1 µM
Nc1nc(Nc2ccc(OCCN3CCCC3=O)cc2)nn1C(=O)c1ccc(N2CCOCC2)cc1
1 to 10 µM
Cc1ccc(C(=O)n2nc(Nc3ccc(N4CCCC4)cc3)nc2N)cc1
1 to 10 µM
CN(C)c1ccc(C(=O)n2nc(Nc3ccc(OCCN4CCCC4)cc3)nc2N)cc1
< 1 µM
COc1c(F)cc(C(=O)n2nc(Nc3ccc(OCCN4CCCC4)cc3)nc2N)cc1F
< 1 µM

Form field IC50, entry CN1CCN(c2ccc(Nc3nc(N)n(C(=O)c4ccc(OC(C)(C)C)cc4)n3)cc2)CC1 : < 1 µM

###

Please provide measured pIC50 for the entries that follow.
- test_system: Axl (Homo sapiens, UniProt P30530)
- Construct: endogenous in cells; host or cells: HeLa cells
- method_notes: Phospho-Akt in-cell Western assay (inhibition of Axl activity)
- Format: cell-based
- condition: Table 3; Hela cells, Axl antibody cross-linking stimulation, phospho-Akt chemiluminescence
pIC50: −log10 of the molar value.

Nc1nc(Nc2ccc(OCCN3CCCC3)cc2)nn1C(=O)c1ccncc1 [compound 204]
< 4.70
Nc1nc(Nc2ccc(OCCN3CC[C@H](F)C3)cc2)nn1C(=O)c1ccc2c(c1)OCCO2 [compound 386]
> 6.00
Nc1nc(Nc2ccc(OCCN3CCCC3)cc2)nn1C(=O)c1ccc2ncccc2c1 [compound 288]
> 6.00
Nc1nc(Nc2ccc(OCCN3CCCC3)cc2)nn1C(=O)c1cccs1 [compound 285]
> 6.00

Please give pIC50, item by item, for the list that follows.
1. Nc1nc(Nc2ccc(OCCN3CCCC3)cc2)nn1C(=O)c1ccccn1 [compound 203]
2. Nc1nc(Nc2ccc(OCCn3ccnc3)cc2)nn1C(=O)c1ccc2cc[nH]c2c1 [compound 375]
3. CC(=O)n1nc(Nc2ccc3c(c2)OCCO3)nc1N [compound 261]
4. Nc1nc(Nc2ccc(OCCn3ccnc3)cc2)nn1C(=O)c1ccc2sccc2c1 [compound 377]
5. Nc1nc(Nc2ccccc2)nn1C(=O)/C=C/c1ccco1 [compound 141]

["< 4.70", "> 6.00", "< 4.70", "> 6.00", "5.00 to 6.00"]

###

- test_system: Axl (Homo sapiens)
- Construct: endogenous in cells; host or cells: HeLa cells
- method_notes: Phospho-Akt in-cell Western assay (inhibition of Axl activity)
- Type: cell-based
- condition: inhibition of Axl activity, Table 1
measured_parameter: IC50

Here are 3 molecules together with their reported answers.
Nc1nc(Nc2ccc3c(c2)OCCO3)nn1C(=O)c1ccc(O)cc1
1 to 10 µM
CC(C)Oc1ccc(C(=O)n2nc(Nc3ccc(OCc4ccccc4)cc3)nc2N)cc1
> 20 µM
CC(C)Oc1ccc(Nc2nc(N)n(C(=O)c3cccc([N+](=O)[O-])c3)n2)cc1
1 to 10 µM

// for each molecule below, give its IC50
1. Cc1cccc(C(=O)n2nc(Nc3ccc4c(c3)OCCO4)nc2N)c1
2. CNC(=O)COc1cccc(Nc2nc(N)n(C(=O)c3cccc(C)c3)n2)c1

1 to 10 µM
1 to 10 µM

###

- test_system: Axl (Homo sapiens, UniProt P30530)
- Construct: endogenous in cells; host or cells: HeLa cells
- method_notes: Phospho-Akt in-cell Western assay (inhibition of Axl activity)
- Format: cell-based
- condition: Table 8; Hela cells, Axl antibody cross-linking stimulation, phospho-Akt chemiluminescence
pIC50: −log10 of the molar value.
measured_parameter: pIC50

As a guide, the following entries are already answered.
CC(=O)N(C)c1ccc(Nc2nc(N)nn2C(=O)Nc2ccc3c(c2)OCO3)cc1
< 4.70
Nc1nc(Nc2ccc(OCCN3CCCCC3)cc2)n(C(=O)NC2CCCC2)n1
< 4.70
Nc1nc(Nc2ccc(OCCN3CCCCC3)cc2)n(C(=O)NC2CCCCC2)n1
5.00 to 6.00

Provide the reported pIC50 of each entry below, same order.
1. COc1ccc(NC(=O)n2nc(N)nc2Nc2ccc(OCCN3CCCCC3)cc2)cc1
2. CCCCOc1ccc(NC(=O)n2nc(N)nc2Nc2ccc(OCCN3CCCCC3)cc2)cc1
3. COc1cc(NC(=O)n2nc(N)nc2Nc2ccc(OCCN3CCCCC3)cc2)cc(OC)c1
4. CC(=O)N(C)c1ccc(Nc2nc(N)nn2C(=O)NC2CCCC2)cc1
5. COC(=O)n1nc(N)nc1Nc1ccc2c(c1)OCCO2
6. Cc1ccc(NC(=O)n2nc(N)nc2Nc2ccc(OCCN3CCCCC3)cc2)cc1

1. 5.00 to 6.00
2. < 4.70
3. 5.00 to 6.00
4. < 4.70
5. < 4.70
6. 5.00 to 6.00

Each compound below has a reported value. Please supply its pIC50.
1. Nc1nc(Nc2ccc(OCCN3CCCCC3)cc2)n(C(=O)Nc2ccc3c(c2)OCO3)n1
2. Cc1cccc(NC(=O)n2nc(N)nc2Nc2ccc(OCCN3CCCCC3)cc2)c1

["5.00 to 6.00", "5.00 to 6.00"]

###

- test_system: Axl (Homo sapiens)
- Construct: endogenous in cells; host or cells: HeLa cells
- method_notes: Phospho-Akt in-cell Western assay (inhibition of Axl activity)
- Format: cell-based
- condition: inhibition of Axl activity, phospho-Akt in-cell Western assay; Table 1
- Procedure: The compounds of the invention were tested in the following assay for their ability to inhibit Axl activity. Phospho-Akt in-Cell Western Assay […]
measured_parameter: IC50

# count of solved cases: 7
Nc1nc(Nc2ccc(OCCN3CCCC3)cc2)nn1C(=O)c1ccc(OC(F)(F)F)cc1 [compound #23]
< 1000 nM
Nc1nc(Nc2ccc(OCCN3CCCC3)c(F)c2)nn1C(=O)c1ccc(-c2csnn2)cc1 [compound 306]
< 1000 nM
Nc1nc(Nc2ccc(OCCN3CCCC3)cc2)nn1C(=O)c1ccc(N2CCCCC2)cc1 [compound 401]
< 1000 nM
CC(C)Oc1ccc(C(=O)n2nc(Nc3ccc(N4CCCCC4)cc3)nc2N)cc1 [compound #26]
1000 to 10000 nM
CC(C)(C)OC(=O)NCc1ccc(C(=O)n2nc(Nc3ccc(OCCN4CCCC4)cc3)nc2N)cc1 [compound 278]
< 1000 nM
CC(C)Oc1ccc(C(=O)n2nc(Nc3ccc(N4CCCC4)cc3)nc2N)cc1 [compound 293]
1000 to 10000 nM
Nc1nc(Nc2ccc(OCCN3CCCC3)cc2)nn1C(=O)c1ccc2c(c1)OCO2 [compound #16]
< 1000 nM

Now look at this entry.
Item: CN(C)c1ccc(C(=O)n2nc(Nc3ccc(OCCN4CC[C@H](F)C4)cc3)nc2N)cc1 [compound 385] | IC50: < 1000 nM
